From: PubChem BioAssay (NCI)

Tested on: RPMI-8226 leukemia
METHOD_SUMMARY: NCI-60 one-dose screen, 48 h (100 = growth as untreated, 0 = no growth, -100 = all killed)
MEASUREMENT_CONTEXT: 10 µM unless noted
The panel holds about 83,000 compounds, 20% with a hit somewhere; the sample as a whole holds those more often.
// Not satisfied strictly below 10% in growth; Satisfied otherwise

Solved cases (5 shown):
COMPOUND: O=C(CS(=O)c1oc(-c2cccs2)nc1S(=O)(=O)c1ccc(Br)cc1)c1ccccc1 (stereo not drawn)
ANSWER_LABEL: Satisfied
--
COMPOUND: CC(=O)OC[C@H]1OC(Sc2sc(C(=O)c3ccc(Cl)cc3)c(N)c2-c2nc3ccccc3s2)[C@H](OC(C)=O)[C@@H](OC(C)=O)[C@@H]1OC(C)=O (stereo partly drawn)
ANSWER_LABEL: Satisfied
--
COMPOUND: Fc1cc(-c2nnc3sc(-c4ccc(Cl)cc4Cl)nn23)c(Cl)cc1Cl
ANSWER_LABEL: Satisfied
--
COMPOUND: Cc1cc(O)c(C2=NN(c3ccc(S(N)(=O)=O)cc3)C(c3ccccc3O)C2)cc1Cl (stereo not drawn)
ANSWER_LABEL: Satisfied
--
COMPOUND: O=C(/C=C/c1sc(Cl)nc1Cl)c1ccccc1
ANSWER_LABEL: Satisfied

Problem: Does the compound O=C(N/N=C/c1c(Cl)cccc1Cl)c1ccc(C(F)(F)F)nc1Nc1cccc(C(F)(F)F)c1 have recorded growth that is 10% or more?
Result: Satisfied

Problem: Does the compound c1ccc2cc(C[n+]3ccn(CCCCCCCCCCCCn4cc[n+](Cc5ccc6ccccc6c5)c4)c3)ccc2c1 have recorded growth that is 10% or more?
Result: Not satisfied

Problem: Does the compound Oc1ccc(-c2nc3ccc4[nH]ncc4c3c3c2CCCC3)c2cccnc12 have recorded growth that is 10% or more?
Result: Not satisfied
